Items are presented alongside their recorded Ki.
biological target: human GlyT1c transporter (Homo sapiens, UniProt P48067); construct: expressed in transfected cells; host or cells: CHO cells (recombinant; line hGlyT1c_5_CHO is named for the uptake assay); assay: Radioligand binding assay using recombinant CHO cell membranes expressing human GlyT1; settings: radioligand binding to human GlyT1c transporter-expressing membranes
Sequence (P48067 whole entry): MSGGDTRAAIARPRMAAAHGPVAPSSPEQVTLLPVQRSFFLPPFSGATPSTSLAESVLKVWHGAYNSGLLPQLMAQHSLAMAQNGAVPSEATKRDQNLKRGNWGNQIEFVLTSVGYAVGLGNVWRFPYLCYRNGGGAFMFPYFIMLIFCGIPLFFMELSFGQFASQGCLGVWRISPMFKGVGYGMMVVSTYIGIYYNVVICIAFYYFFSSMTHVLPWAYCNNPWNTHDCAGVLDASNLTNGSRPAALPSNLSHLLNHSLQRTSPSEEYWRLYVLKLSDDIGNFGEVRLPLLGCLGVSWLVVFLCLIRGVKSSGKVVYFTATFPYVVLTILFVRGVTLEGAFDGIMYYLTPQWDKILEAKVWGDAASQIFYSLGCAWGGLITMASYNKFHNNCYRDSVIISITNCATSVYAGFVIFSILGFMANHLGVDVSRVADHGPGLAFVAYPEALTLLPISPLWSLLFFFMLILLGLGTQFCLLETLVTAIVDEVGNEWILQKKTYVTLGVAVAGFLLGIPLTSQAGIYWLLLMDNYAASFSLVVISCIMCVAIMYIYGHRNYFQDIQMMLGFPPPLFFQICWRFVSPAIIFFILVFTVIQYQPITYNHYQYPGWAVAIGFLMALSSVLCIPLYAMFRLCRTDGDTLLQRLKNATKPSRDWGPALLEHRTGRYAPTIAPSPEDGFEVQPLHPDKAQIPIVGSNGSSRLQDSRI

compound="CC(C)c1cccc(N[C@@H]2CN(S(=O)(=O)c3cn(C)cn3)C[C@H]2c2ccc(F)cc2)c1 (relative stereo)" system_under_test="human GlyT1c transporter (Homo sapiens, UniProt P48067)" metric_name=Ki obs_value="≤ 100 nM"
compound=Cn1cnc(S(=O)(=O)N2C[C@H](Nc3cc(Cl)ncn3)[C@@H](c3ccc(F)cc3)C2)c1 system_under_test="human GlyT1c transporter (Homo sapiens, UniProt P48067)" metric_name=Ki obs_value="≤ 100 nM"
compound="Cn1cnc(S(=O)(=O)N2C[C@@H](NCc3ccc(Cl)cc3Cl)[C@H](c3ccccc3F)C2)c1 (relative stereo)" system_under_test="human GlyT1c transporter (Homo sapiens, UniProt P48067)" metric_name=Ki obs_value="≤ 100 nM"
compound="Cn1cnc(S(=O)(=O)N2C[C@@H](NC(=O)c3ccc(C(F)(F)F)cc3Cl)[C@H](c3ccccc3)C2)c1 (relative stereo)" system_under_test="human GlyT1c transporter (Homo sapiens, UniProt P48067)" metric_name=Ki obs_value="≤ 100 nM"

Notebook: Cn1cnc(S(=O)(=O)N2C[C@H](NCc3cnn4ccccc34)[C@@H](c3ccccc3)C2)c1 , Ki read as ≤ 10000 nM

Form field Ki, entry Cn1cnc(S(=O)(=O)N2C[C@H](NCC3(C)CCCCC3)[C@@H](c3ccccc3)C2)c1 : ≤ 1000 nM

Sure, the documented Ki for Cn1cnc(S(=O)(=O)N2C[C@@H](Nc3cccc(Cl)c3)[C@H](c3ccccn3)C2)c1 (relative stereo) is ≤ 100 nM

// field: Ki; key: Cn1cnc(S(=O)(=O)N2C[C@@H](C(=O)NCc3cccc(OC(F)(F)F)c3)[C@H](c3ccc(F)cc3)C2)c1 (relative stereo) ; value = ≤ 1000 nM

Ki reported for this compound Cn1cnc(S(=O)(=O)N2C[C@H](Nc3ccc4occc4c3)[C@@H](c3ccccc3)C2)c1 : ≤ 1000 nM

Entry Cn1cnc(S(=O)(=O)N2C[C@@H](C(=O)c3ccc(OC(F)(F)F)cc3)[C@H](c3ccc(F)cc3)C2)c1 (relative stereo) ; Ki = ≤ 100 nM

// Cn1cnc(S(=O)(=O)N2C[C@H](Nc3cc(OCC(F)(F)F)ccn3)[C@@H](c3ccc(F)cc3)C2)c1 : Ki value = ≤ 10 nM

Sample Cn1cnc(S(=O)(=O)N2C[C@@H](C(=O)NCc3cc(C(F)(F)F)ccc3Cl)[C@H](c3ccc(F)cc3)C2)c1 (relative stereo) ; Ki observed: ≤ 1000 nM

----------
biological target: human GlyT1c transporter (Homo sapiens); construct: expressed in transfected cells; host or cells: CHO cells (recombinant; line hGlyT1c_5_CHO is named for the uptake assay); assay: Radioligand binding assay using recombinant CHO cell membranes expressing human GlyT1; conditions: radioligand binding to human GlyT1c transporter-expressing membranes
METRIC_NAME: Ki

Observe how each entry below is paired with its result.
compound="O=S(=O)(N1CCOCC1)N1CC(Nc2ccc(F)c(F)c2)C(c2ccccc2)C1 (stereo not shown)" system_under_test="human GlyT1c transporter (Homo sapiens)" metric_name=Ki obs_value="≤ 10 µM"
compound="Cn1cnc(S(=O)(=O)N2C[C@@H](Nc3cccc(Cl)c3)[C@H](C3CC3)C2)c1 (relative stereo)" system_under_test="human GlyT1c transporter (Homo sapiens)" metric_name=Ki obs_value="≤ 1 µM"
compound="Cn1cnc(S(=O)(=O)N2C[C@@H]([C@@H]3CCCOC3)[C@H](Nc3ccc(F)c(Cl)c3)C2)c1 (mixture of isomers)" system_under_test="human GlyT1c transporter (Homo sapiens)" metric_name=Ki obs_value="≤ 1 µM"

Per the records, this compound ( Cn1cnc(S(=O)(=O)N2C[C@@H](NC(=O)c3ccc(Cl)cc3)[C@H](c3ccccc3)C2)c1 (relative stereo) ) has Ki equal to ≤ 1 µM
